Source listed as patent US12310975B2.

system tested: BCL6 (Homo sapiens (Human), UniProt P41182)
test description: Immunofluorescence high content imaging of BCL6 degradation in T47D cells
Format: cell-based
measurement conditions: T47D
We begin with a simple list: items and their reported Dmax.

Examples from the recorded data:
>  <molecule>
CNC(=O)COc1cc2cc(Nc3nc(N4CCC(OC5CN(C6CCN(c7cccc8c7C(=O)N(C7CCC(=O)NC7=O)C8=O)CC6)C5)CC4)ncc3Cl)ccc2n(C(C)C)c1=O (stereo not drawn)

>  <reported value>
50 to 70%

$$$$
>  <molecule>
CNC(=O)COc1cc2cc(Nc3nc(N4CCC(CN5CC(N6CCC(c7ccc8c(c7)C(=O)N(C7CCC(=O)NC7=O)C8=O)CC6)C5)CC4)ncc3Cl)ccc2n(C(C)C)c1=O (stereo not drawn)

>  <reported value>
≥ 70%

$$$$

Next, consider the following molecule.
Param readout = Dmax; param system = BCL6 (Homo sapiens (Human), UniProt P41182); param query = CCNC(=O)COc1cc2cc(Nc3nc(N4CCC(CN5CCN(c6ccc7c(c6)C(=O)N(C6CCC(=O)NC6=O)C7=O)CC5)CC4)ncc3Cl)ccc2n(C)c1=O (stereo not drawn) ; response: value
50 to 70%

----------
system tested: UniProtKB P41182
test description: Immunofluorescence high content imaging of BCL6 degradation in T47D cells
Type: cell-based
measurement conditions: class symbols A-D, read-out: EC50 (nM)*
We begin with a simple list: items and their reported DC50.

>  <molecule>
CNC(=O)COc1cc2cc(Nc3nc(N4CCCC(COc5ccc(C6CCN(CC#Cc7ccc8c(c7)CN(C7CCC(=O)NC7=O)C8=O)CC6)cc5)C4)ncc3Cl)ccc2n(C)c1=O (stereo not drawn) [compound 167]

>  <DC50>
> 100 nM

$$$$
>  <molecule>
CNC(=O)COc1cc2cc(Nc3nc(N4CCC(OCCOc5cc(-c6scnc6C)ccc5CNC(=O)[C@@H]5C[C@@H](O)CN5C(=O)C(c5cc(C)no5)C(C)C)CC4)ncc3Cl)ccc2n(C)c1=O (stereo partly drawn) [compound 56]

>  <DC50>
> 100 nM

$$$$

Next, consider the following molecule.
Endpoint output: DC50 of CC(=O)COc1cc2cc(Nc3nc(C#CC4CCCN(Cc5ccc6c(c5)C(=O)N(C5CCC(=O)NC5=O)C6=O)C4)ncc3Cl)ccc2n(C)c1=O (stereo not drawn) [compound 173] . Value?
10 to 50 nM

----------
system tested: BCL6 (Homo sapiens (Human))
test description: BCL6 TR-FRET assay (BCL6-Avitag-Biotin / BCoR-Cy5 peptide)
Type: binding
measurement conditions: read-out: IC50
We begin with a simple list: items and their reported IC50.

Examples from the recorded data:
>  <compound>
CNC(=O)COc1cc2cc(Nc3nc(N4CCC(O[C@@H]5C[C@H](Oc6ccc7c(c6)C(=O)N(C6CCC(=O)NC6=O)C7=O)CN(C)C5)CC4)ncc3Cl)ccc2n(C(C)C)c1=O (some centres unmarked)

>  <system tested>
BCL6 (Homo sapiens (Human))

>  <IC50>
10 to 50 nM

$$$$
>  <compound>
CNC(=O)COc1cc2cc(Nc3nc(N(C)C)ncc3Cl)ccc2n(CCCOc2ccc3c(c2)C(=O)N(C2CCC(=O)NC2=O)C3=O)c1=O (centres unmarked)

>  <system tested>
BCL6 (Homo sapiens (Human))

>  <IC50>
10 to 50 nM

$$$$
>  <compound>
CNC(=O)COc1cc2cc(Nc3nc(N4CCN(CC5CCC6(CC5)CN(c5cc(F)cc7c5C(=O)N(C5CCC(=O)NC5=O)C7=O)C6)CC4)ncc3Cl)ccc2n(C(C)C)c1=O (centres unmarked)

>  <system tested>
BCL6 (Homo sapiens (Human))

>  <IC50>
< 10 nM

$$$$
>  <compound>
CNC(=O)COc1cc2cc(Nc3nc(N4CCC(CN5CCC6(C5)CN(c5ccc7c(c5)C(=O)N(C5CCC(=O)NC5=O)C7=O)C6)CC4)ncc3Cl)ccc2n(C(C)C)c1=O (centres unmarked)

>  <system tested>
BCL6 (Homo sapiens (Human))

>  <IC50>
< 10 nM

$$$$

Next, consider the following compound.
Endpoint output: IC50 of CNC(=O)COc1cc2cc(Nc3nc(N4CCN(CC5CCN(c6cccc7c6C(=O)N(C6CCC(=O)NC6=O)C7=O)CC5)CC4)ncc3Cl)ccc2n(CC2COC2)c1=O (centres unmarked) . Value?
< 10 nM
